- System: SNB-75 CNS
- ASSAY PROCEDURE: NCI-60 one-dose screen, 48 h (100 = growth as untreated, 0 = no growth, -100 = all killed)
- TEST PARAMETERS: 10 µM
- Description: Growth inhibition of the SNB-75 human tumor cell line is measured as a screen for anti-cancer activity. Cells are grown in 96 well plates and exposed to the test compound for 48 hours. Compounds are tested at a single concentration, which is 10^-5 M for most compounds. The reported endpoint is percent growth (GI% or GIPRCNT), where numbers from 0 - 100% represent growth inhibition, and numbers from -100% - 0 represent cell death. For example, a value of 40 represents 60% growth inhibition. […]
The panel holds about 83,000 compounds, 20% with a hit somewhere; the sample as a whole holds those more often.
Decide by growth: equal to or exceeding 80% means Y, less means N.

COMPOUND	GROUP
FC(F)(F)c1ccc(-c2cnc(-n3cc(COCCN4CCCCC4)nn3)nc2NC2CCCCCC2)cc1	N
COc1ccc2c(c1OC)O/C(=C\c1ncc([N+](=O)[O-])n1C)C2=O	N
COc1cc(-c2cc(C(=O)N3CCN(C(=O)c4ccccc4NCc4cccs4)CC3)nc3cc(-c4ccccc4)nn23)cc(OC)c1OC	N
O=C1C(c2ccccc2)C2C=CC(C2)N1O (stereo not given)	Y
O=C(Nc1ccc(CN2CCc3nc4cc(O)c(O)cc4cc32)cc1)c1ccc(Cl)c(Cl)c1	Y
Cc1cc(Cc2cc(C)c(O)c(C)c2)cc(C)c1O	N
O=C(Nc1ccc(Cl)cc1)N1NC(c2ccc(Cl)cc2)C=C1c1ccccc1 (stereo not given)	N
COc1ccc(/C(=C2/O[C@@H]([C@H]3COC(C)(C)O3)[C@H]3OC(C)(C)O[C@@H]23)c2cc(OC)c(OC)c(OC)c2)cc1O	N

###

Each record here notes measured growth.
- System: OVCAR-4 ovarian
- ASSAY PROCEDURE: NCI-60 one-dose screen, 48 h (100 = growth as untreated, 0 = no growth, -100 = all killed)
- TEST PARAMETERS: 10 µM
About 83,000 compounds went through this panel and 20% of them were active in at least one assay; those are over-represented in the sample as a whole.

MOLECULE	MEASURED TARGET	UNIT INFO	growth
COc1ccc(/C=C2/CN(C(=O)c3ccc(C)cc3)C/C(=C\c3ccc(OC)cc3)C2=O)cc1	OVCAR-4 ovarian	%	83.8
O=C(c1cccs1)c1ccccc1Cc1ccccc1	OVCAR-4 ovarian	%	96.9
O=[N+]([O-])c1ccc(Oc2cccnc2)c([N+](=O)[O-])c1	OVCAR-4 ovarian	%	50.2
COc1ccc(-c2cc(-c3ccc(N(C)C)cc3)c(C#N)c(N3CCCC3)n2)cc1	OVCAR-4 ovarian	%	81.4
COc1ccc(Nc2ccnc(NCCNc3ccnc4cc(Cl)ccc34)n2)cc1	OVCAR-4 ovarian	%	37.1
O=C(Nc1nc(-c2ccccc2Cl)cs1)c1cc(-c2ccc(Cl)cc2)nc2ccc(Cl)cc12	OVCAR-4 ovarian	%	44
COc1ccc(-c2cc(-c3cccc(NS(C)(=O)=O)c3)nc(N)c2C#N)cc1	OVCAR-4 ovarian	%	51.3
N=C(N)c1ccc(-c2ccc(-c3ccccc3)o2)nc1	OVCAR-4 ovarian	%	75.3
Nc1ccn(C2CC(O)C(CO)O2)c(=O)n1 (stereo unspecified)	OVCAR-4 ovarian	%	114
NC(=O)c1ccc(-c2cccc3c(=O)nc(N4CCOCC4)oc23)cc1	OVCAR-4 ovarian	%	90.5
O=C1c2ccc3c4c(ccc(c24)C(=O)N1CCNCc1ccccc1)C(=O)N(CCNCc1ccccc1)C3=O	OVCAR-4 ovarian	%	-97.8
COc1ccc(-c2nnc(-c3c(-c4ccccc4)nc4ncccn34)o2)cc1OC	OVCAR-4 ovarian	%	93.1
N#Cc1cc(-c2cc3ccccc3o2)oc1N	OVCAR-4 ovarian	%	20.5
COc1ccc(-c2nsc3c2NC(=O)CC3c2ccc(F)cc2)cc1 (stereo unspecified)	OVCAR-4 ovarian	%	90.8
COc1ccc(/C=C/C(=O)Nc2ccc(-c3nc4ccc(OC)cc4s3)cc2)cc1	OVCAR-4 ovarian	%	128
CNc1ncc(-c2ccc(C(F)(F)F)cc2)c(NC2CCCCCC2)n1	OVCAR-4 ovarian	%	70.1
COc1ccc2c(c1OC)O/C(=C\c1ncc([N+](=O)[O-])n1C)C2=O	OVCAR-4 ovarian	%	78.9
COc1cc(-c2cc(/C=C3\C(=O)Nc4ccccc43)[nH]n2)cc(OC)c1OC	OVCAR-4 ovarian	%	42
Cc1ccc(NC(=O)Nc2c(Cl)cccc2Cl)cn1	OVCAR-4 ovarian	%	135
COc1cc(/C=C2\CCCC3=C2N=C2SC=NN2C3c2cc(OC)c(OC)c(OC)c2)cc(OC)c1OC (stereo unspecified)	OVCAR-4 ovarian	%	47
COc1cc(C(=O)/C=C/c2cc(-c3cc(OC)c(OC)c(OC)c3)n[nH]2)cc(OC)c1OC	OVCAR-4 ovarian	%	34.2

###

- Test system: HCC-2998 colon
- ASSAY PROCEDURE: NCI-60 one-dose screen, 48 h (100 = growth as untreated, 0 = no growth, -100 = all killed)
- TEST PARAMETERS: 10 µM
- Experimental: Growth inhibition of the HCC-2998 human tumor cell line is measured as a screen for anti-cancer activity. Cells are grown in 96 well plates and exposed to the test compound for 48 hours. Compounds are tested at a single concentration, which is 10^-5 M for most compounds. The reported endpoint is percent growth (GI% or GIPRCNT), where numbers from 0 - 100% represent growth inhibition, and numbers from -100% - 0 represent cell death. For example, a value of 40 represents 60% growth inhibition. […]
About 83,000 compounds went through this panel and 20% of them were active in at least one assay; those are over-represented in the sample as a whole.
REPORTED METRIC: growth (%)

MOLECULE	REPORTED METRIC	MEASURED VALUE
COc1cc(-c2cc(C(=O)N3CCN(C(=O)c4ccccc4NCc4cccs4)CC3)nc3cc(-c4ccccc4)nn23)cc(OC)c1OC	growth	101
CCOC(=O)CCC(NC(=O)c1ccc(N)cc1)C(=O)OCC (centres undefined)	growth	105
CCCCOC(=O)Oc1ccc(C(=O)Oc2ccc(OCC)cc2)cc1	growth	102
CCN1CCN(c2nc3ccccc3c3c(=O)c4ccccc4sc23)CC1	growth	57.2
O=C(Nc1cccc(-n2cc(-c3ccncc3)c(-c3ccc(O)c(Cl)c3)n2)c1)c1cc(C(F)(F)F)cc(C(F)(F)F)c1	growth	33.3
O=C(CCCCCCC(=O)Nc1cccnc1)NO	growth	40
O=C(Nc1cccc(-n2cc(-c3ccncc3)c(-c3cc(O)cc(Cl)c3)n2)c1)c1cc(C(F)(F)F)cc(C(F)(F)F)c1	growth	28.9
COc1ccc(-c2nn(-c3cccc(NC(=O)Nc4ccccc4)c3)cc2-c2ccncc2)cc1Cl	growth	-71.1
Cc1ccc(CC#N)cc1C	growth	103
COc1cc(Cc2cc(-c3ccc(Cl)cc3)n[nH]c2=O)ccc1O	growth	131
Cc1cc(C)c(NC(=O)c2sc3nc4c(cc3c2N)C(=O)CCC4)c(C)c1	growth	30.9
O=C(CSSCC(=O)c1ccc(Cl)cc1)c1ccc(Cl)cc1	growth	63.1
CC(=O)c1cc(Cl)ccc1O	growth	97.4
Cc1ccc(C(=O)Nc2cccc(F)c2)cc1NC(=O)C1(c2ncnc3[nH]ccc23)CC1	growth	60.5

###

- System: NCI-H460 lung
- ASSAY PROCEDURE: NCI-60 one-dose screen, 48 h (100 = growth as untreated, 0 = no growth, -100 = all killed)
- TEST PARAMETERS: 10 µM
About 83,000 compounds went through this panel and 20% of them were active in at least one assay; those are over-represented in the sample as a whole.

COMPOUND	MEASURED TARGET	UNIT INFO	growth
Cc1cc(=O)[nH]c(N/N=C/c2ccccc2O)n1	NCI-H460 lung	%	23.3
COc1ccc(OC)c2c1C(=O)CC2C (stereo unspecified)	NCI-H460 lung	%	104
O=C(Nc1cccc(-n2cc(-c3ccncc3)c(-c3ccc(O)c(Cl)c3)n2)c1)c1cc(C(F)(F)F)cc(C(F)(F)F)c1	NCI-H460 lung	%	21.5
CCCCC/C=C/C(=O)CCc1ccc(O)c(OC)c1	NCI-H460 lung	%	97.3
COc1cc(CNc2ccccc2C(=O)N2CCN(C(=O)c3cc(-c4cc(OC)c(OC)c(OC)c4)n4nc(-c5ccccc5)cc4n3)CC2)cc(OC)c1OC	NCI-H460 lung	%	11.7
COc1ccc2nc3ccccc3c(NCCNCC(C)O)c2c1 (stereo unspecified)	NCI-H460 lung	%	-10.8
c1ccc(C(NC2CC3CCC2C3)c2ccccc2)cc1 (stereo unspecified)	NCI-H460 lung	%	105
CCOCC(=O)C(C#N)c1ccc(Cl)c(Cl)c1 (stereo unspecified)	NCI-H460 lung	%	107
COc1cc(-c2cc(/C=C/C(=O)c3ccc(F)c(F)c3)[nH]n2)cc(OC)c1OC	NCI-H460 lung	%	58.1
COc1ccc(C(=O)/C=C/c2cc(-c3cc(OC)c(OC)c(OC)c3)n[nH]2)cc1	NCI-H460 lung	%	2.79
O=C1C(=O)c2ccccc2C(O)=C1CCCc1ccc(C2CCCCCC2)cc1	NCI-H460 lung	%	11.6
